System: VchCAST RNA-guided transposition machinery (E. coli BL21(DE3) host, lacZ target)
test-summary: relative integration efficiency (T-RL orientation) vs wild-type transposon end (log2 (normalized fold change)); transposon end mutated: right end (5 bp flank + 75 bp right end); higher = more efficient transposition
Answer label 0 if relative integration efficiency (log2) is under -0.5, and label 1 if it is -0.5 or more.

[
  {
    "macromolecule-sequence": "ACATTTGTCGATACAACCATAAAACGATAATTACACCCATAAATTGATCATTATCACACCCAATTTAACTATAACGCTCTGATCATAGTCAGACCAACATTGCTACGACCCGTATTCGCACCGACAC",
    "class-label": "label 0"
  },
  {
    "macromolecule-sequence": "ACATTTGTTGATACAACCAGCCCCTGATAATTACACCCAGCCCGTGATAATTATCACACCCAGCCCGTGATATTGCCTCTGATCATAGTCAGACCAACATTGCTACGACCCGTATTCGCACCGACAC",
    "class-label": "label 0"
  },
  {
    "macromolecule-sequence": "ACATTTGTTGATACAACCATAAAAGGATCATTCACCCATAAATTGATAATTATCACACCCACATTTAACTATAACGCTCTGATCATAGTCAGACCAACATTGCTACGACCCGTATTCGCACCGACAC",
    "class-label": "label 0"
  },
  {
    "macromolecule-sequence": "ACATTTGTTGATACAACCATAAAATGATAATTACACCCATAAATTGATAATTATCACACCCATAAATTGATATTGCCTCTGATCCAACCATAAAATGATAATTAATAGTCAGACCAAGCACCGACAC",
    "class-label": "label 1"
  },
  {
    "macromolecule-sequence": "ACATTTGTTGATACAACCATAAAATGATAAGGACACCCATAAATTGATAATTATCACACCCATAAATTGATATTGCCTCTGATCATAGTCAGACCAACATTGCTACGACCCGTATTCGCACCGACAC",
    "class-label": "label 0"
  },
  {
    "macromolecule-sequence": "ACATTTGTTGATACAACCATAAAATGATAATTAATAATTATTTATAATCAGCCACCCATAAATTGATAATTATCAACAAACGCCCGGTCGCGGTACTCTGATCATAGTCAGACCAACATTGCTACGA",
    "class-label": "label 0"
  },
  {
    "macromolecule-sequence": "ACATTTGTTGATACAACCATAAAATGATAATTACACCCATAAATTGATAATTATCACACCCATAAATTGATATTGCCTCTTCATGGTCTAAACTTCAGTTTCAAATGCTGATTTTCAGCACCGACAC",
    "class-label": "label 1"
  },
  {
    "macromolecule-sequence": "ACATTTGTTGATACAACCATAAAATGATAATTACACCCATAAATTGATAATTATCACACCCCGCCCGGTCGCGGTAAGAGGATCATAGTCAGACCAACATTGCTACGACCCGTATTCGCACCGACAC",
    "class-label": "label 0"
  },
  {
    "macromolecule-sequence": "ACATTTGTTGATACAACCATAAAGTGATATTTACACCCATAAATTGATAATTATCACAACCATATATTGATATCTCCTCTGATCATAGTCAGACCAACATTGCTACGACCCGTATTCGCACCGACAC",
    "class-label": "label 1"
  }
]
